Each recorded value in this set is attributed to patent US12435061B2.

Target: hTRPV3 (Homo sapiens (Human), UniProt Q8NET8)
Sequence (Q8NET8 whole entry): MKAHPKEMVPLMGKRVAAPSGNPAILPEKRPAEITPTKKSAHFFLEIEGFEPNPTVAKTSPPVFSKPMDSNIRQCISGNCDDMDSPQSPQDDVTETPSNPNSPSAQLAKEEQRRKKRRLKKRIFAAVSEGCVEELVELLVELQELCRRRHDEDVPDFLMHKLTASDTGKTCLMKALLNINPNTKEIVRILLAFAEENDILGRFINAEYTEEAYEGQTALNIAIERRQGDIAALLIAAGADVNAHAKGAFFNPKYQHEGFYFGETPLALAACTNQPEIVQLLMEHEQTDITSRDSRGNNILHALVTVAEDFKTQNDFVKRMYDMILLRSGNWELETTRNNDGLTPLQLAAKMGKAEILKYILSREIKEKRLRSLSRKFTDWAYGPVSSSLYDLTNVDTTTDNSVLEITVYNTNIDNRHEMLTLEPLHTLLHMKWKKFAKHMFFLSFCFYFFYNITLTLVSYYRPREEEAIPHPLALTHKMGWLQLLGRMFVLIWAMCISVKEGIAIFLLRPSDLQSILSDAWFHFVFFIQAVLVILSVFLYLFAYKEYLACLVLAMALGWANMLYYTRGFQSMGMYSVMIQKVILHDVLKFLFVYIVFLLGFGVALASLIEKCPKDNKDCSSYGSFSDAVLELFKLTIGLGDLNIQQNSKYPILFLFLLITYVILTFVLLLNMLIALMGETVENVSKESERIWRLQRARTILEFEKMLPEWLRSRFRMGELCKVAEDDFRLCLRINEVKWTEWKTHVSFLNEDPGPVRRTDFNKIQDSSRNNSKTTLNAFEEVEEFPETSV
Assay: Whole-cell patch clamp, hTRPV3 Phase 1 / Phase 2 currents
Assay type: cell-based
Details: Phase 2 current; read-out: hTRPV3 (nM) (Phase 2)
Counter-ions that a name gives are not always drawn.
Value kind: IC50

Enquiry: Quick check: IC50 of NC(=O)c1cc(-c2ccccc2)ccc1N1CC[C@@H](Oc2ccc3cc(Cl)ccc3n2)C1 ?
Return: > 3200 nM

Enquiry: Quick check: IC50 of N#Cc1cc(-c2ccccc2)ccc1N1CCC(Oc2ccc3ccccc3n2)C1=O (stereo not drawn) ?
Return: > 3200 nM

Enquiry: Quick check: IC50 of Oc1cc(-c2ccccc2)ccc1N1CC[C@@H](Oc2ccc(C(F)(F)F)cn2)C1 ?
Return: > 3200 nM

Enquiry: Quick check: IC50 of CC(C)Oc1ccccc1N1CC[C@H](Oc2ccc3cc(Cl)ccc3n2)C1 ?
Return: ~4600 nM

Enquiry: Quick check: IC50 of CCc1ccccc1-c1ccc(N2CC[C@H](Oc3ncccc3C)C2)c(CO)n1 ?
Return: ~1000 nM

Enquiry: Quick check: IC50 of N#Cc1cc(-c2ccccc2)ccc1N1CC[C@H](Oc2ccc(C(F)(F)F)cn2)C1 ?
Return: ~504 nM

Enquiry: Quick check: IC50 of NCc1cc(-c2ccccc2)ccc1N1CC[C@H](Oc2ncccc2Cl)C1 [Compound 1-125, hydrochloride] ?
Return: > 3200 nM

Enquiry: Quick check: IC50 of COc1ccccc1-c1ccc(N2CC[C@H](Oc3ccc(C(F)(F)F)cn3)C2)c(CO)n1 ?
Return: > 3200 nM

Enquiry: Quick check: IC50 of NC(=O)c1cc(-c2ccccc2)cnc1N1CC[C@@H](Nc2ccc(C(F)(F)F)cn2)C1 ?
Return: > 3200 nM

---

Molecular target: hTRPV3 (Homo sapiens (Human), UniProt Q8NET8)
Test: Whole-cell patch clamp, hTRPV3 Phase 1 / Phase 2 currents
Format: cell-based
Settings: Phase 1 current; read-out: hTRPV3 (nM) (Phase 1)
Provide the recorded IC50 for the entries that follow.

Enquiry: Look up IC50 with hTRPV3 (Homo sapiens (Human), UniProt Q8NET8) for this molecule: OCCc1cc(Oc2ccccc2Cl)ccc1N1CC[C@H](Oc2ncccc2Cl)C1
Return: ~51 nM

Enquiry: Look up IC50 with hTRPV3 (Homo sapiens (Human), UniProt Q8NET8) for this molecule: OCc1ncc(-c2ccccc2)cc1N1CC[C@H](Oc2ccc(C(F)(F)F)cn2)C1
Return: > 3200 nM

Enquiry: Look up IC50 with hTRPV3 (Homo sapiens (Human), UniProt Q8NET8) for this molecule: OCc1cc(C2=CCOCC2)ccc1N1CC[C@H](Oc2ccc(C(F)(F)F)cn2)C1
Return: ~3600 nM

Enquiry: Look up IC50 with hTRPV3 (Homo sapiens (Human), UniProt Q8NET8) for this molecule: Cc1ccc(O[C@H]2CCN(c3ccc(-c4ccccc4C#N)nc3CO)C2)nc1
Return: > 3200 nM

Enquiry: Look up IC50 with hTRPV3 (Homo sapiens (Human), UniProt Q8NET8) for this molecule: COc1ccccc1Oc1ccc(N2CC[C@H](Oc3ccc(C)cn3)C2)c(CO)n1
Return: ~3000 nM

---

Provide the recorded IC50 for the entries that follow.
Target: hTRPV3 (Homo sapiens (Human), UniProt Q8NET8)
Experiment: Whole-cell patch clamp, hTRPV3 Phase 1 / Phase 2 currents
Type: cell-based
Conditions: Phase 1 current; read-out: hTRPV3 (nM) (Phase 1)

Enquiry: Quick check: IC50 of O=C(O)c1cc(-c2ccccc2Cl)ccc1N1CC[C@H](Oc2ccc(C(F)(F)F)cn2)C1 [Compound 1-166] ?
Return: ~2210 nM

Enquiry: Quick check: IC50 of CC(C)(C)OC(=O)N1CCC(c2ccc(N3CC[C@H](Oc4ccc(C(F)(F)F)cn4)C3)c(CCO)c2)CC1 [Compound 1-301] ?
Return: ~2980 nM

Enquiry: Quick check: IC50 of CCc1ccccc1Oc1ccc(CO)c(N2CC[C@H](Oc3ncccc3Cl)C2)c1 [Compound 1-233] ?
Return: ~21.6 nM

Enquiry: Quick check: IC50 of Cc1ccc(O[C@H]2CCN(c3ccc(Oc4ccccc4C)nc3CO)C2)nc1 [Compound 1-203] ?
Return: ~5050 nM
